conditions: in n-butanol, 288.15 K
property_name: solubility (mole fraction)

Cc1ccc(S(=O)[O-])cc1.[Na+] = 0.00039

----------
conditions: in water, 278.15 K
property_name: solubility (mole fraction)

Cc1ccc(S(=O)[O-])cc1.[Na+] = 0.0172

----------
conditions: in acetonitrile, 303.15 K
property_name: solubility (mole fraction)

Cc1ccc(S(=O)[O-])cc1.[Na+] = 0.00021

----------
details: in isopropanol, 303.15 K
property_name: solubility (mole fraction)

Cc1ccc(S(=O)[O-])cc1.[Na+] = 0.001

----------
conditions: in isopropanol, 283.15 K
property_name: solubility (mole fraction)

Cc1ccc(S(=O)[O-])cc1.[Na+] = 0.00086
